For each entry below, report its pKd value.
- Measured Target: refolded pepsin (Rp) (Sus scrofa)
- Construct: Only the R13 and K36 side-chains of the PS form hydrogen bonds with the mature pepsin domain; purchased Sigma (St. Louis, MO, USA)
- Sequence (P00791 60-385): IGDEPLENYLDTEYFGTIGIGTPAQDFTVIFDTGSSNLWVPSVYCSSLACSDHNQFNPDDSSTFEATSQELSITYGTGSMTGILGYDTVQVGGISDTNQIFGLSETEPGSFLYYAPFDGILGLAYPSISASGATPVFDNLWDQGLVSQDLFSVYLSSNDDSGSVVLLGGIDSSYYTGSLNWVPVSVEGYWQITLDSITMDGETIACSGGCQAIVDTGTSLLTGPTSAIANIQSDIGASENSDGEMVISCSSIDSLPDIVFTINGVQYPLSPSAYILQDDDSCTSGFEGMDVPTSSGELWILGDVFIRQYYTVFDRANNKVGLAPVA
- Experimental Protocol: PS binding to Rp (Trp-fluorescence)
- Parameters: species or system porcine
- Condition Info: 0.6-1.2 µM Rp, 20 mM acetic acid/NaOH pH 5.3 without added NaCl, 20°C, ≥10 min; Trp-fluorescence ex 295 nm, em 315 nm; mean ± SD from non-linear curve fitting, 3-5 measurements; read-out: K d (PS-Rp dissociation constant)
Where no end group is shown, it is not given here.
# pKd = -log10(concentration in molar units)

Query: Return reported pKd; argument: LVKVPLVRKKSLRQNLIKNGKLKDFLKTHKHNPASKYFPEAAAL [WT]
Response: 6.51

Query: Return reported pKd; argument: LVKVPLVRKKSLRQNLIKNGKLKDFLKTHKHNPASAYFPEAAAL [K36A]
Response: 6.14

Query: Return reported pKd; argument: LVKVPLVRKKSLRQNLAKNGKLKDFLKTHKHNPASKYFPEAAAL [I17A]
Response: 6.68

Query: Return reported pKd; argument: LVKVPLVRKKSLAQNLIKNGKLKDFLKTHKHNPASKYFPEAAAL [R13A]
Response: 5.71

Query: Return reported pKd; argument: LVKVPLVRKKALRQNLIKNGKLKDFLKTHKHNPASKYFPEAAAL [S11A]
Response: 6.17

Query: Return reported pKd; argument: LVKAPLVRKKSLRQNLIKNGKLKDFLKTHKHNPASKYFPEAAAL [V4A]
Response: 5.92

Query: Return reported pKd; argument: LVKVPAVRKKSLRQNLIKNGKLKDFLKTHKHNPASKYFPEAAAL [L6A]
Response: 6.19

Query: Return reported pKd; argument: LVKVPLVRKKSLRQNLIKNGKLKDALKTHKHNPASKYFPEAAAL [F25A]
Response: 6.60
